System: Danio rerio embryo (fli1:egfp)
Experiment: intersegmental vessel area normalized to body length at 72 hpf (ISV area / body length (normalized units)); higher = more vessel area
Settings: 0.0244 µM; exposure: 5-72 hpf
Overview of recorded intersegmental vessel area normalized for various compounds
# answer = number (no unit)

Check out these entries, answers already filled in.
| structure | target_of_assay | recorded_number |
| --- | --- | --- |
| C#CCOC(=O)[C@@H](C)Oc1ccc(Oc2ncc(Cl)cc2F)cc1 | Danio rerio embryo (fli1:egfp) | 65.9 |
| CO/N=C(/C1=NOCCO1)c1ccccc1Oc1ncnc(Oc2ccccc2Cl)c1F | Danio rerio embryo (fli1:egfp) | 76 |
| CCOc1cc(Oc2ccc(C(F)(F)F)cc2Cl)ccc1[N+](=O)[O-] | Danio rerio embryo (fli1:egfp) | 86.8 |

API: the following record is the query input.
### Prompt Please supply the value of reported intersegmental vessel area normalized for the item CN(C)C(=S)SSC(=S)N(C)C
### Response 97.9

* * *

Tested on: Danio rerio embryo (fli1:egfp)
Assay: intersegmental vessel area normalized to body length at 72 hpf (ISV area / body length (normalized units)); higher = more vessel area
Settings: 12.5 µM; exposure: 5-72 hpf
assay_endpoint: intersegmental vessel area normalized
# answer = number (no unit)

Check out these entries, answers already filled in.
| compound | target_of_assay | intersegmental vessel area normalized |
| --- | --- | --- |
| CCCCCOC(=O)COc1cc(N2C(=O)C3=C(CCCC3)C2=O)c(F)cc1Cl [Flumiclorac-pentyl] | Danio rerio embryo (fli1:egfp) | 69.4 |
| CCCCSP(=O)(SCCCC)SCCCC [Tribufos] | Danio rerio embryo (fli1:egfp) | 81.3 |
| O=C(O)c1cc(Oc2ccc(C(F)(F)F)cc2Cl)ccc1[N+](=O)[O-] [Acifluorfen] | Danio rerio embryo (fli1:egfp) | 89.5 |
| Cc1nn(-c2cc(NS(C)(=O)=O)c(Cl)cc2Cl)c(=O)n1C(F)F [Sulfentrazone] | Danio rerio embryo (fli1:egfp) | 74.8 |
| C#CCOC(=O)[C@@H](C)Oc1ccc(Oc2ncc(Cl)cc2F)cc1 [Clodinafop-propargyl] | Danio rerio embryo (fli1:egfp) | 89.6 |

### Prompt Please supply the value of reported intersegmental vessel area normalized for the item CCOc1cc(Oc2ccc(C(F)(F)F)cc2Cl)ccc1[N+](=O)[O-] [Oxyfluorfen]
### Response 90.5

### Prompt Please supply the value of reported intersegmental vessel area normalized for the item C#CCN1C(=O)COc2cc(F)c(N3C(=O)C4=C(CCCC4)C3=O)cc21 [Flumioxazin]
### Response 75.9

* * *

Tested on: Danio rerio embryo (fli1:egfp)
Test: pericardial area at 72 hpf (image area units (not stated)); higher = larger pericardial area (edema)
Settings: 0.05 µM; exposure: 5-72 hpf
assay_endpoint: pericardial area at 72 hpf
# answer = number (no unit)

Check out these entries, answers already filled in.
| compound | assay_endpoint | recorded_number |
| --- | --- | --- |
| Cc1nn(-c2cc(NS(C)(=O)=O)c(Cl)cc2Cl)c(=O)n1C(F)F | pericardial area at 72 hpf | 17900 |
| C#CCOC(=O)[C@@H](C)Oc1ccc(Oc2ncc(Cl)cc2F)cc1 | pericardial area at 72 hpf | 13100 |
| CN1CSC(=S)N(C)C1 | pericardial area at 72 hpf | 15600 |

### Prompt Tell me pericardial area at 72 hpf of CC1(C)C(C=C(Cl)Cl)C1C(=O)OC(C#N)c1ccc(F)c(Oc2ccccc2)c1 (stereo not drawn) when tested on Danio rerio embryo (fli1:egfp).
### Response 16100

### Prompt Tell me pericardial area at 72 hpf of C=CCOC(=O)C(C)(C)OC(=O)c1cc(-n2c(=O)cc(C(F)(F)F)n(C)c2=O)ccc1Cl when tested on Danio rerio embryo (fli1:egfp).
### Response 15900

### Prompt Tell me pericardial area at 72 hpf of CCc1nn(C)c(C(=O)NCc2ccc(C(C)(C)C)cc2)c1Cl when tested on Danio rerio embryo (fli1:egfp).
### Response 13400

### Prompt Tell me pericardial area at 72 hpf of CCOC(=O)COc1cc(-n2ncc(C(F)(F)F)c(C)c2=O)c(F)cc1Cl when tested on Danio rerio embryo (fli1:egfp).
### Response 12800

### Prompt Tell me pericardial area at 72 hpf of CCOc1cc(Oc2ccc(C(F)(F)F)cc2Cl)ccc1[N+](=O)[O-] when tested on Danio rerio embryo (fli1:egfp).
### Response 14500

### Prompt Tell me pericardial area at 72 hpf of CCCCSP(=O)(SCCCC)SCCCC when tested on Danio rerio embryo (fli1:egfp).
### Response 13400

### Prompt Tell me pericardial area at 72 hpf of CC(C)Oc1cc(-n2nc(C(C)(C)C)oc2=O)c(Cl)cc1Cl when tested on Danio rerio embryo (fli1:egfp).
### Response 14800
